Assignment: determine reported Lym for the given molecules.
species: Rattus norvegicus; assay: Open TG-GATES - Regimen: Daily Repeat; format: toxicity, organism-based, Sprague-Dawley; parameters: regimen Daily Repeat, gender Male, age 6 weeks; conditions: in vivo, po, 0 mg/kg, 72 h, tissue Blood, route gavage, dose level Control, time 3 day
Numbers only, in %.

Some molecules with recorded Lym:
CC(CN1c2ccccc2Sc2ccccc21)N(C)C (stereo not drawn) [PROMETHAZINE]: 81.2
C1CCC(C(CC2CCCCN2)C2CCCCC2)CC1 (stereo not drawn) [PERHEXILINE]: 79
CCOC(=O)[C@H](CCc1ccccc1)N[C@@H](C)C(=O)N1CCC[C@H]1C(=O)O: 73.6

For each entry beneath this line, provide reported Lym.
1. CN1C(C(=O)Nc2ccccn2)=C(O)c2sc(Cl)cc2S1(=O)=O [LORNOXICAM]
2. Cc1cccc(Nc2ccccc2C(=O)O)c1C [MEFENAMIC ACID]
3. Clc1c(Cl)c(Cl)c(Cl)c(Cl)c1Cl [PERCHLOROBENZENE]
4. CN(C)[C@@H]1C(O)=C(C(N)=O)C(=O)[C@@]2(O)C(O)=C3C(=O)c4c(O)cccc4[C@@](C)(O)[C@H]3C[C@@H]12 [TETRACYCLINE]

Ans:
79
76
77
82.4

Lym reading for C#C[C@]1(O)CC[C@H]2[C@@H]3CCC4=Cc5oncc5C[C@]4(C)[C@H]3CC[C@@]21C [DANAZOL] : 77.4

* * *

Provide the recorded K for the entries that follow.
species: Rattus norvegicus; assay: Open TG-GATES - Regimen: Single; format: toxicity, organism-based, Sprague-Dawley; set-up: regimen Single, gender Male, age 6 weeks; settings: in vivo, po, 0 mg/kg, 24 h, tissue Plasma, route gavage, dose level Control
Give bare numbers, in meq/L.

Please review the following examples before continuing.
CCOC(=O)[C@H](CCc1ccccc1)N[C@@H](C)C(=O)N1CCC[C@H]1C(=O)O: 5.2
Cc1cccc(Nc2ccccc2C(=O)O)c1C: 4.1
CN(C)[C@@H]1C(O)=C(C(N)=O)C(=O)[C@@]2(O)C(O)=C3C(=O)c4c(O)cccc4[C@@](C)(O)[C@H]3C[C@@H]12: 4.9
Clc1c(Cl)c(Cl)c(Cl)c(Cl)c1Cl: 4
CC(CN1c2ccccc2Sc2ccccc21)N(C)C (stereo unspecified): 4.4

I have 3 compounds here; please give me K for each one.
1. CC(=O)Nc1nnc(S(N)(=O)=O)s1 [ACETAZOLAMIDE]
2. COc1cc([C@@H]2c3cc4c(cc3[C@@H](O[C@@H]3O[C@@H]5CO[C@@H](C)O[C@H]5[C@H](O)[C@H]3O)[C@H]3COC(=O)[C@H]23)OCO4)cc(OC)c1O [ETOPOSIDE]
3. C1CCC(C(CC2CCCCN2)C2CCCCC2)CC1 (stereo unspecified)

Ans:
4.1
4.8
4.3

Quick one: give me K for each item below, same order please.
1. O=[N+]([O-])c1ccc2c(c1)Cc1ccccc1-2
2. CN1C(C(=O)Nc2ccccn2)=C(O)c2sc(Cl)cc2S1(=O)=O
3. C#C[C@]1(O)CC[C@H]2[C@@H]3CCC4=Cc5oncc5C[C@]4(C)[C@H]3CC[C@@]21C

Ans:
[4.1, 4, 4.2]

* * *

organism: Rattus norvegicus; experiment: Open TG-GATES - Regimen: Daily Repeat; assay type: toxicity, organism-based, Sprague-Dawley; design: regimen Daily Repeat, gender Male, age 6 weeks; settings: in vivo, po, 0 mg/kg, 72 h, tissue Plasma, route gavage, dose level Control, time 3 day
Assay Readout: RALB (g/dL)
Give bare numbers, in g/dL.

CC(=O)Nc1nnc(S(N)(=O)=O)s1 [ACETAZOLAMIDE]: 3.1

Fill in RALB for each of the 6 compounds listed.
1. CC(CN1c2ccccc2Sc2ccccc21)N(C)C (centres undefined)
2. CN(C)[C@@H]1C(O)=C(C(N)=O)C(=O)[C@@]2(O)C(O)=C3C(=O)c4c(O)cccc4[C@@](C)(O)[C@H]3C[C@@H]12
3. C#C[C@]1(O)CC[C@H]2[C@@H]3CCC4=Cc5oncc5C[C@]4(C)[C@H]3CC[C@@]21C
4. CN1C(C(=O)Nc2ccccn2)=C(O)c2sc(Cl)cc2S1(=O)=O
5. Cc1cccc(Nc2ccccc2C(=O)O)c1C
6. C1CCC(C(CC2CCCCN2)C2CCCCC2)CC1 (centres undefined)

Ans:
1. 3.1
2. 4
3. 3.1
4. 3.5
5. 3.5
6. 3.2

// each compound listed below needs its RALB
1. CCOC(=O)[C@H](CCc1ccccc1)N[C@@H](C)C(=O)N1CCC[C@H]1C(=O)O
2. Clc1c(Cl)c(Cl)c(Cl)c(Cl)c1Cl

Ans:
[3.8, 3.9]
